assay_notes: Cytotoxicity (viability, CC50) reported with the anti-HBV test
Assay type: cell-based
condition_context: human, HepG2 AD38 cells
reported_metric: CC50

[ask] Using the record for C=CCOC(=O)[C@H](C)N[P@](=O)(OC[C@@H]1O[C@H](n2cc(C)c(=O)[nH]c2=O)[C@H](F)[C@H]1O)Oc1ccccc1 [1.2(67)] , report its CC50.
[reply] > 30 µM

###

Test system: HepG2 AD38 cell line
assay_notes: Cytotoxicity (viability, CC50) reported with the anti-HBV test
Format: cell-based
condition_context: concentration not given
reported_metric: viability, % (%)
Give bare numbers, in %.

List viability, % for every entry below, keeping the order given.
1. CC(C)OC(=O)[C@H](C)OC(=O)[C@H](C)N[P@](=O)(OC[C@@H]1O[C@H](n2ccc(N)nc2=O)CS1)Oc1ccccc1
2. COCCOC(=O)[C@H](C)N[P@](=O)(OC[C@@H]1O[C@H](n2ccc(=O)[nH]c2=O)CS1)Oc1ccccc1
3. C=C1[C@H](CO[P@@](=O)(N[C@@H](C)C(=O)O[C@@H](C)C(=O)OC(C)C)Oc2ccccc2)[C@@H](O)C[C@@H]1n1cnc2c(=O)[nH]c(N)nc21

[reply]
103
89
95
